Can you tell me SPOT peptide array binding signal intensity for the items I'm about to list?
target_under_test: CaRvs167
measurement_notes: SPOT peptide array binding signal intensity (averaged, normalized) (arbitrary units (background-subtracted, floor 0; scale differs between SH3 domains)); higher = stronger binding of the SH3 domain to the peptide

(Q) Reported SPOT peptide array binding signal intensity, binder FTLPPPPPPPGLDEL : ____
(A) ≤ 0

(Q) Reported SPOT peptide array binding signal intensity, binder VPVAPPPPPASLGQS : ____
(A) ≤ 0

(Q) Could you share which SPOT peptide array binding signal intensity value was measured for PPPPPPPPPPLPQSL ?
(A) ≤ 0
